assay: Mouse PK Assays; settings: in vivo, PO 50 mg/kg, 20% DMSO/60% PEG400/20% Water, fed, read-out: PK-Mouse: PO AUC-0-last
MEASUREMENT NAME: AUC(0-t) (ng·h/mL)

a = Cc1cc(C(C)Nc2ccccc2C(=O)O)c2oc(N3CCC(C)(C)CC3)cc(=O)c2c1 (single isomer, unassigned)
b = Cc1cc(C(C)Nc2ccccc2C(=O)O)c2oc(N3Cc4ccccc4C3)cc(=O)c2c1 (single isomer, unassigned)
Inquiry: Between a and b , which one shows the smaller AUC(0-t) number? Please respond with the label that marks your chosen entry.
Reply text: a

----------
target: human full length PIK3CA H1047R mutant (p110α/p85α complex) (Homo sapiens (Human), UniProt P42336, H1047R); test: PI3K-Alpha kinase (PIK3CA) activity, H1047R mutant, Transcreener ADP2 FI assay; conditions: PI3K-α (PIK3CA) H1047R mutant, biochemical
Sequence (P42336 whole entry H1047R): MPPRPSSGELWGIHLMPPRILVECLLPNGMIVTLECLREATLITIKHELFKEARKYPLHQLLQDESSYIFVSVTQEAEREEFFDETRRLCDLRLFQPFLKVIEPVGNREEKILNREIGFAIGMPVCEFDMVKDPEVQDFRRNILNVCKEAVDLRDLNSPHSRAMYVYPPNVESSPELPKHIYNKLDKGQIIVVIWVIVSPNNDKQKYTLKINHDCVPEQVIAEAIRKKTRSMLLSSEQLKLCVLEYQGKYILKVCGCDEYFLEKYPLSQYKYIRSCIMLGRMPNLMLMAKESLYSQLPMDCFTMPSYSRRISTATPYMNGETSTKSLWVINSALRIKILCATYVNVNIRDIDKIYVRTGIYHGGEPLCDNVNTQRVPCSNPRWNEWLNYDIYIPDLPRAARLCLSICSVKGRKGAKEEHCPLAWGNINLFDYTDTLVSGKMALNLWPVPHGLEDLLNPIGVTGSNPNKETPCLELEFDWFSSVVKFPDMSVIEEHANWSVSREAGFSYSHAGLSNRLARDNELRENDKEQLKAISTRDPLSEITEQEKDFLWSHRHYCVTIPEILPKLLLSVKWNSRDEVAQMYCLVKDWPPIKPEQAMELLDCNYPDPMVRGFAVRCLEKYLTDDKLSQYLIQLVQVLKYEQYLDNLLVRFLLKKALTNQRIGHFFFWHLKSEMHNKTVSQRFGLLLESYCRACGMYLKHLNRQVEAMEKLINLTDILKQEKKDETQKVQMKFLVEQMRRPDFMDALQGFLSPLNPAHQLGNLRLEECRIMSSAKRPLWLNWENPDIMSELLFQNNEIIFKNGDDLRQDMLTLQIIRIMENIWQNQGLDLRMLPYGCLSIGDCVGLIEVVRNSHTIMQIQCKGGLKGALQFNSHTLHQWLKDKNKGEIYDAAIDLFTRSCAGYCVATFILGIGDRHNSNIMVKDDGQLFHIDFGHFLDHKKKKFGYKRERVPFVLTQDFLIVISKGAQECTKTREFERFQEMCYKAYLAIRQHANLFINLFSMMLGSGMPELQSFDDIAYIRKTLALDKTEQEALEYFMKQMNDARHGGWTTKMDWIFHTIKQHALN
Sequence (P27986 whole entry partner): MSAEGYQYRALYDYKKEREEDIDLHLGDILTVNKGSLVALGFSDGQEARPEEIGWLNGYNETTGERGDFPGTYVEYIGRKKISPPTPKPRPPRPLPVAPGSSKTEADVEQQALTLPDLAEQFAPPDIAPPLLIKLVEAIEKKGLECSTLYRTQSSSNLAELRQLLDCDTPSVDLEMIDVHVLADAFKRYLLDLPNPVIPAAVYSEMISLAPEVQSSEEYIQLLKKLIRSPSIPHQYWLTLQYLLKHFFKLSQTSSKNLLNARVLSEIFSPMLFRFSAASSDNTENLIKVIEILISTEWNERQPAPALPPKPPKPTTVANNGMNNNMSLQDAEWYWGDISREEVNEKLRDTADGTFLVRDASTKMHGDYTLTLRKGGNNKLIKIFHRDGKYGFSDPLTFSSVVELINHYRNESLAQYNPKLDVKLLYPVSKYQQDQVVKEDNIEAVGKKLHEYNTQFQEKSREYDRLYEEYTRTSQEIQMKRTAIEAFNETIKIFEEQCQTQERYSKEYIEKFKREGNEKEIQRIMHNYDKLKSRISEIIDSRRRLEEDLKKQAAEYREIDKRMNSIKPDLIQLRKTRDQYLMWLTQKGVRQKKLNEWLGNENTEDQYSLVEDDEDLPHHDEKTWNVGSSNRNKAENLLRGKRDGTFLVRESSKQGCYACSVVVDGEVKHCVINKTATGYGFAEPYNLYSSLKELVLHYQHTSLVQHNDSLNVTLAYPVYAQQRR
pIC50: −log10 of the molar value.
MEASUREMENT NAME: pIC50

Some compounds with known pIC50 results, for comparison:
>>> measured_result("Cc1cc(C(C)Nc2ccccc2C(=O)O)c2oc(N3CCC4(CCCCO4)CC3)cc(=O)c2c1 (stereo not shown) [Example 93]")
"6.00 to 6.30"
>>> measured_result("Cc1cc(C(C)Nc2ccccc2C(=O)O)c2oc(N3CC(N(C)C)C3)cc(=O)c2c1 (stereo not shown) [Example 68]")
"5.30 to 6.00"
>>> measured_result("Cc1cc(C(C)Nc2cccc(F)c2C(=O)O)c2oc(N3Cc4ccc(F)cc4C3)c(C)c(=O)c2c1 (single isomer, unassigned) [Example 244]")
"< 5.00"
>>> measured_result("Cc1cc(C(C)Nc2ccccc2C(=O)O)c2oc(N3CCCC4(CCOCC4)C3)cc(=O)c2c1 (stereo not shown) [Example 76]")
"6.00 to 6.30"
>>> measured_result("Cc1cc(C(C)Nc2ccccc2-c2noc(=O)[nH]2)c2oc(N3CCC(C)(C)CC3)cc(=O)c2c1 (stereo not shown) [Example 45]")
"6.00 to 6.30"

Inquiry: # lookup: pIC50 of Cc1cc(C(C)Nc2ccccc2C(=O)O)c2oc(N3CCC4(CC3)Cn3nc(C(=O)N(C)C)cc3CO4)cc(=O)c2c1 (stereo not shown) [Example 107]
Reply text: 5.30 to 6.00

Inquiry: Item: Cc1cc(C(C)Nc2cccc(F)c2C(=O)O)c2oc(N3Cc4ccc(F)cc4C3)cc(=O)c2c1 (stereo not shown) [Example 238]
Reply text: 5.30 to 6.00

----------
assay: Mouse PK Assays; details: in vivo, PO 50 mg/kg, 20% DMSO/60% PEG400/20% Water, fed, read-out: PK-Mouse: PO F (%)
MEASUREMENT NAME: bioavailability (%)
Answer format: numeric, % implied, no suffix.

Inquiry: Can you look up the measured bioavailability of Cc1cc(C(C)Nc2ccccc2C(=O)O)c2oc(N3Cc4ccccc4C3)cc(=O)c2c1 (single isomer, unassigned) [Example 363] for me?
Reply text: 33

----------
experiment: Mouse PK Assays; conditions: in vivo, PO 100 mg/kg, 20% DMSO/60% PEG400/20% H2O, fed
MEASUREMENT NAME: Cmax (ng/mL)
Field: numeric (ng/mL). Do not append units.

Inquiry: Requested field: Cmax. Item: Cc1cc(C(C)Nc2ccccc2C(=O)O)c2oc(N3CCC(C)(C)CC3)cc(=O)c2c1 (single isomer, unassigned)
Reply text: 22.6

Ref: patent US11649227B2
